Where do these numbers come from? They come from patent US20030068675.

target: ZFP SBS#701 (synthetic); assay: EMSA; details: tags: MBP fusion
Sequence (chain, as listed by the source): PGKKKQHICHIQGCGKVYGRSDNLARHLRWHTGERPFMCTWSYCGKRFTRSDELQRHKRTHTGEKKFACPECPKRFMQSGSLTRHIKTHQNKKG
pKd: −log10 of the molar value.
Quantity kind: pKd

Binder	Value measured
GCAGCGGAGC (dsDNA) DNA 1: GCAGCGGAGC DNA 2: GCTCCGCTGC	7.30
